# ASSAY SUMMARY: inhibition of endothelial tube formation, primary screen, imaging, VEGF stimulated, CD31 staining, tube area, NPC library (AID 1117340)
# RECORDED CONDITIONS: VEGF-stimulated ADSC/ECFC co-culture, at 10 µM, stronger effect = higher value

{"MOLECULE": "COc1ccc(NS(=O)(=O)c2ccc(N)cc2)nn1", "tube area decrease (%)": 14}
{"MOLECULE": "COC(=O)Nc1nc2ccc(C(=O)c3cccs3)cc2[nH]1", "tube area decrease (%)": 105}
{"MOLECULE": "CCN(CC)CCNC(=O)c1ccc(NC(C)=O)cc1", "tube area decrease (%)": 23.1}
{"MOLECULE": "CN(C)C(=O)Oc1cccc([N+](C)(C)C)c1", "tube area decrease (%)": -12.9}
{"MOLECULE": "CCOC(=O)[C@H](CCc1ccccc1)N[C@@H](C)C(=O)N1[C@H](C(=O)O)C[C@@H]2CCC[C@@H]21", "tube area decrease (%)": -11}
{"MOLECULE": "C[C@](N)(Cc1ccc(O)c(O)c1)C(=O)O", "tube area decrease (%)": 1.4}
{"MOLECULE": "CCC(C)n1ncn(-c2ccc(N3CCN(c4ccc(OC[C@H]5CO[C@](Cn6cncn6)(c6ccc(Cl)cc6Cl)O5)cc4)CC3)cc2)c1=O (stereo not given in full)", "tube area decrease (%)": 96.5}
{"MOLECULE": "CCN(CC)CCNc1ccc(CO)c2sc3ccccc3c(=O)c12", "tube area decrease (%)": 76}
{"MOLECULE": "COc1cc(C(=O)OCCCN2CCCN(CCCOC(=O)c3cc(OC)c(OC)c(OC)c3)CC2)cc(OC)c1OC", "tube area decrease (%)": 4.6}
{"MOLECULE": "NS(=O)(=O)c1cc2c(cc1Cl)NC(C1CC3C=CC1C3)NS2(=O)=O (stereo not given)", "tube area decrease (%)": 2.9}

---

# ASSAY SUMMARY: compounds altering viability of human ES cells (AID 493140);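 further: cells exposed to compounds for four days before counting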
# RECORDED CONDITIONS: human embryonic stem cell survival screen; stronger effect = higher value

{"MOLECULE": "CN(C)CCOC(=O)COc1ccc(Cl)cc1", "survival": 8.75}
{"MOLECULE": "CN1CCC(OC(c2ccccc2)c2ccccc2)CC1", "survival": 4.58}
{"MOLECULE": "Nc1ccc(S(=O)(=O)Nc2ccnn2-c2ccccc2)cc1", "survival": 28}
{"MOLECULE": "CCN(CC)C(C)CN1c2ccccc2Sc2ccccc21 (configuration not stated)", "survival": 4.08}
{"MOLECULE": "OC(CCN1CCCCC1)(c1ccccc1)c1ccccc1", "survival": 3.42}
{"MOLECULE": "CCOC(=O)n1ccn(C)c1=S", "survival": 11.8}
{"MOLECULE": "CCCCOc1ccc(C(=O)CCN2CCCCC2)cc1", "survival": 4.92}
{"MOLECULE": "NCCCCCC(=O)O", "survival": 2}
{"MOLECULE": "C[C@@H]1C[C@H]2[C@@H]3C[C@H](F)C4=CC(=O)C=C[C@]4(C)[C@@]3(F)[C@@H](O)C[C@]2(C)[C@@]1(O)C(=O)CO", "survival": 2.17}
{"MOLECULE": "Cc1onc(-c2ccccc2Cl)c1C(=O)N[C@@H]1C(=O)N2[C@@H]1SC(C)(C)[C@@H]2C(=O)O", "survival": 24.6}
{"MOLECULE": "CCN(CC)CCNc1ccc(CO)c2sc3ccccc3c(=O)c12", "survival": 1.33}
{"MOLECULE": "COc1ccc(C(=O)c2ccccc2)c(O)c1", "survival": 3.25}

---

# ASSAY SUMMARY: viability loss with induced miR-34 in A549 – imaging, A549 dox-inducible miR-34, nuclei and caspase counts, primary screen (AID 1347080)
# RECORDED CONDITIONS: A549 miR-34 inducible, Hoechst nuclei count, 48 h; measured here: relative caspase fold change +Dox/-Dox

{"ITEM SMILES": "COCc1c(C(C)C)nc(C(C)C)c(/C=C/[C@@H](O)C[C@@H](O)CC(=O)O)c1-c1ccc(F)cc1", "fold change": 1.46}
{"ITEM SMILES": "CCOC(N)=O", "fold change": 3.55}
{"ITEM SMILES": "CCC(=O)O[C@H]1[C@H](O[C@@H]2[C@@H](C)[C@H](O[C@H]3C[C@@](C)(OC)[C@@H](O)[C@H](C)O3)[C@@H](C)C(=O)O[C@H](CC)[C@@](C)(O)[C@H](O)[C@@H](C)C(=O)[C@H](C)C[C@@]2(C)O)O[C@H](C)C[C@@H]1N(C)C", "fold change": 3.7}
{"ITEM SMILES": "CC(=O)[C@@]1(O)CC[C@H]2[C@@H]3C[C@H](C)C4=CC(=O)C=C[C@]4(C)[C@@]3(F)[C@@H](O)C[C@@]21C", "fold change": 1.39}
{"ITEM SMILES": "C[C@]12CCC(=O)C=C1C=C[C@@H]1[C@@H]2CC[C@@]2(C)[C@H]1CC[C@@]21CCC(=O)O1", "fold change": 1.19}
{"ITEM SMILES": "Cn1c(=O)c2c(ncn2CCO)n(C)c1=O", "fold change": 1.24}
{"ITEM SMILES": "NC(=O)c1ccc([N+](=O)[O-])cc1Cl", "fold change": 3.38}
{"ITEM SMILES": "Nc1nccs1", "fold change": 0.616}
{"ITEM SMILES": "CCn1cc(C(=O)O)c(=O)c2cnc(N3CCCC3)nc21", "fold change": 1.02}
{"ITEM SMILES": "COc1ccc(CN(CCN(C)C)c2ncccn2)cc1", "fold change": 3.03}
{"ITEM SMILES": "NCCCC(=O)O", "fold change": 1.86}
{"ITEM SMILES": "CC(C)c1ccc2oc3nc(N)c(C(=O)O)cc3c(=O)c2c1", "fold change": 1.68}
{"ITEM SMILES": "O=C(O)CCCC[C@@H]1SC[C@@H]2NC(=O)N[C@@H]21", "fold change": 1.66}
{"ITEM SMILES": "CCN(CC)CCNC(=O)c1cc(Br)c(N)cc1OC", "fold change": 1.23}
{"ITEM SMILES": "CN(C)CCc1c[nH]c2ccc(CS(=O)(=O)N3CCCC3)cc12", "fold change": 1.05}

---

List of inhibition of viability values.
# ASSAY SUMMARY: HCT116 colon cancer cell growth inhibition, primary screen, CellTiter-Glo luminescence, NPC library (AID 1117342)
# RECORDED CONDITIONS: at 20 µM (top of the series)

{"COMPOUND": "COc1cc([C@H]2Oc3cc([C@H]4Oc5cc(O)cc(O)c5C(=O)[C@@H]4O)ccc3O[C@@H]2CO)ccc1O", "inhibition of viability (%)": 18.7}
{"COMPOUND": "CC(=O)Nc1c(I)cc(I)c(C(=O)O)c1I", "inhibition of viability (%)": 4.5}
{"COMPOUND": "O=C(O)c1cc(O)c(O)c(O)c1", "inhibition of viability (%)": 1.3}
{"COMPOUND": "CCN(CC)CCNC(=O)c1cc(Br)c(N)cc1OC", "inhibition of viability (%)": -0.17}
{"COMPOUND": "Cc1c(NC(=O)c2cccnc2)c(=O)n(-c2ccccc2)n1C", "inhibition of viability (%)": -4.77}
{"COMPOUND": "NC(CO)C(=O)NNCc1ccc(O)c(O)c1O (configuration not stated)", "inhibition of viability (%)": 84.4}
{"COMPOUND": "CCC1=C(C)CN(C(=O)NCCc2ccc(S(=O)(=O)NC(=O)NC3CCC(C)CC3)cc2)C1=O (configuration not stated)", "inhibition of viability (%)": 2.4}
{"COMPOUND": "CCN(CC)C(=O)c1cccc(C)c1", "inhibition of viability (%)": -3.2}
{"COMPOUND": "N=C(N)N", "inhibition of viability (%)": 1.3}
{"COMPOUND": "CCCCCCOc1ccccc1C(N)=O", "inhibition of viability (%)": 19.5}
{"COMPOUND": "Cc1nc2n(c(=O)c1CCN1CCC(c3noc4cc(F)ccc34)CC1)CCCC2", "inhibition of viability (%)": 24.2}
{"COMPOUND": "Nc1nc2c(ncn2CCC(CO)CO)c(=O)[nH]1", "inhibition of viability (%)": 6.65}
{"COMPOUND": "O=c1c(-c2ccc(O)cc2)coc2cc(O)cc(O)c12", "inhibition of viability (%)": -0.9}
{"COMPOUND": "NC(=O)NC(=O)Cc1ccccc1", "inhibition of viability (%)": -3.67}
{"COMPOUND": "CC(N)C12CC3CC(CC(C3)C1)C2 (configuration not stated)", "inhibition of viability (%)": 7.6}
{"COMPOUND": "CN1CCN(C2=Nc3cc(F)ccc3Cc3ccccc32)CC1", "inhibition of viability (%)": 37.7}
{"COMPOUND": "CCN(CC)CC1CCCCN1CC(=O)N1c2ccccc2C(=O)Nc2cccnc21 (configuration not stated)", "inhibition of viability (%)": 1.17}
{"COMPOUND": "Oc1cccc(O)c1", "inhibition of viability (%)": 8}
{"COMPOUND": "Oc1ccc(Cl)cc1Cc1cc(Cl)ccc1O", "inhibition of viability (%)": 102}
{"COMPOUND": "CN(C)C(=O)Oc1cccc([N+](C)(C)C)c1", "inhibition of viability (%)": 2.9}
{"COMPOUND": "CC(=O)Oc1ccccc1C(=O)O", "inhibition of viability (%)": -5.9}
{"COMPOUND": "CCN(CC)CCOC(=O)C(Cc1cccc2ccccc12)CC1CCCO1 (configuration not stated)", "inhibition of viability (%)": 26.1}
{"COMPOUND": "COc1ccccc1OCC(O)CN1CCN(CC(=O)Nc2c(C)cccc2C)CC1 (configuration not stated)", "inhibition of viability (%)": 9.23}
{"COMPOUND": "Nc1nnc(-c2cccc(Cl)c2Cl)c(N)n1", "inhibition of viability (%)": 9.7}
{"COMPOUND": "COc1cc(OC)c(C(=O)CCCN2CCCC2)c(OC)c1", "inhibition of viability (%)": -8}
{"COMPOUND": "COC(=O)Nc1nc2ccc(C(=O)c3cccs3)cc2[nH]1", "inhibition of viability (%)": 60.8}
{"COMPOUND": "CCCCOc1ccc(CC(=O)NO)cc1", "inhibition of viability (%)": 12.7}
